# System: BDF1 mice, s.c. Lewis lung carcinoma, T/C %
# test.method.notes: NCI In Vivo Anticancer Drug Screen. Data for tumor model Lewis Lung Carcinoma (subcutaneous) in B6D2F1 (BDF1) mice
# recorded.conditions: endpoint: mean tumor weight; dose: 200.0 mg/kg/injection; schedule: Q01DX010 (ip); vehicle: saline; higher = larger tumour
Records with an inconclusive call do not appear.
Record form. Attribute: T/C. Fill in for each entry.

Consider the compound "O=c1cc(-c2ccccc2)oc2ccc(O)cc12" and give its measured T/C.
97 % of control

# T/C lookup, item "CN(C)/N=N/c1nc[nH]c1C(N)=O"
51 % of control

Need T/C, item "O=c1cc(-c2ccccc2)oc2cccc(O)c12"
82 % of control

Recorded T/C of "COc1ccc(-c2cc(=O)c3ccccc3o2)c(OC)c1OC" , please.
83 % of control

----------
For each record, write down the corresponding T/C.
# Tested on: BDF1 mice, s.c. Lewis lung carcinoma, T/C %
# test.method.notes: NCI In Vivo Anticancer Drug Screen. Data for tumor model Lewis Lung Carcinoma (subcutaneous) in B6D2F1 (BDF1) mice
# recorded.conditions: endpoint: mean tumor weight; dose: 2.0 mg/kg/injection; schedule: Q01DX011 (ip); vehicle: carboxymethylcellulose (CMC); higher = larger tumour
Records with an inconclusive call do not appear.

What value of T/C on BDF1 mice, s.c. Lewis lung carcinoma, T/C % does "COc1cc([C@@H]2c3cc4c(cc3[C@H](O)[C@H]3COC(=O)[C@H]23)OCO4)cc(OC)c1OC" have?
36 % of control

Fill in the recorded T/C for this compound, with BDF1 mice, s.c. Lewis lung carcinoma, T/C % as test system: "CN(Cc1cnc2nc(N)nc(N)c2n1)c1ccc(C(=O)N[C@@H](CCC(=O)O)C(=O)O)cc1"
90 % of control

Lab note: need T/C for "Cc1nc(N)nc(N)c1-c1ccc(Cl)c(Cl)c1" on BDF1 mice, s.c. Lewis lung carcinoma, T/C %, anyone have it?
92 % of control

// map CC1CN(C(=O)CCl)c2ccccc2N1C(=O)CCl (stereo not given) to recorded T/C (system: BDF1 mice, s.c. Lewis lung carcinoma, T/C %)
94 % of control

# query: T/C | item CN1CCCC1c1cccnc1 (stereo not given) | system: BDF1 mice, s.c. Lewis lung carcinoma, T/C %
75 % of control

----------
Would you mind telling me the reported T/C of each entry?
# System: BDF1 mice, s.c. Lewis lung carcinoma, T/C %
# test.method.notes: NCI In Vivo Anticancer Drug Screen. Data for tumor model Lewis Lung Carcinoma (subcutaneous) in B6D2F1 (BDF1) mice
# recorded.conditions: endpoint: mean tumor weight; dose: 50.0 mg/kg/injection; schedule: Q01DX011 (sc); vehicle: steriod suspending solution; higher = larger tumour
# Experimental: The antitumor activity of compounds was measured in mice bearing transplantable tumors. Survival or tumor size were measured and the results are expressed as the measurement made in the treated group (T) divided by the measurement made in the vehicle treated control group (C). The tumor model used in this assay is Lewis Lung Carcinoma (subcutaneous) in B6D2F1 (BDF1) mice
Inconclusive results are not listed.

What T/C appears in the records for this molecule with BDF1 mice, s.c. Lewis lung carcinoma, T/C %? "CC(=O)[C@@]1(O)CC[C@H]2[C@@H]3C[C@H](C)C4=CC(=O)C=C[C@]4(C)[C@@]3(F)[C@@H](O)C[C@@]21C"
18 % of control

Can you look up T/C on BDF1 mice, s.c. Lewis lung carcinoma, T/C % for "COc1ccc(-c2cc(=O)c3c(OC)c(OC)c(OC)c(OC)c3o2)c(OC)c1" ?
87 % of control

Report T/C for "COc1ccc2c(c1)CC[C@@H]1[C@@H]2CC[C@]2(C)/C(=N\O)CC[C@@H]12" tested on BDF1 mice, s.c. Lewis lung carcinoma, T/C %.
43 % of control

Give recorded T/C with BDF1 mice, s.c. Lewis lung carcinoma, T/C % for the following molecule: "COc1c(OC)c(OC)c(-c2cc(=O)c3c(OC)c(OC)c(OC)c(OC)c3o2)c(OC)c1OC"
97 % of control

Identify the measured T/C of "COc1ccc(-c2cc(=O)c3c(O)c(OC)c(OC)c(OC)c3o2)cc1" for BDF1 mice, s.c. Lewis lung carcinoma, T/C %.
63 % of control

Form field - read-out: T/C; system: BDF1 mice, s.c. Lewis lung carcinoma, T/C %; submitted item: "C[C@]12C=CC(=O)C=C1CC[C@@H]1[C@@H]2[C@@H](O)C[C@@]2(C)[C@H]1CC[C@]2(O)C(=O)CO"
51 % of control

Write down the reported T/C of "CC(C)CCC[C@@H](C)[C@H]1CC[C@H]2[C@@H]3CC=C4C[C@@H](OC(=O)Cc5ccc(N(CCCl)CCCl)cc5)CC[C@]4(C)[C@H]3CC[C@]12C" , test system: BDF1 mice, s.c. Lewis lung carcinoma, T/C %.
84 % of control

Missing value: T/C, BDF1 mice, s.c. Lewis lung carcinoma, T/C %, entry "COc1c(OC)c(O)c2c(=O)cc(-c3ccc(O)cc3)oc2c1OC" . Fill in?
81 % of control

Notebook entry, BDF1 mice, s.c. Lewis lung carcinoma, T/C % assay: T/C of "C[C@H]1CC[C@@]2(NC1)O[C@H]1C[C@H]3[C@@H]4CC[C@H]5C[C@@H](O)CC[C@]5(C)[C@H]4CC[C@]3(C)[C@H]1[C@@H]2C" = ?
119 % of control

Form: Entry = "C[C@]12CCC(=O)C=C1CC[C@@H]1[C@@H]2[C@@H](O)C[C@@]2(C)[C@H]1CC[C@]2(O)C(=O)COC(=O)c1ccc([N+](=O)[O-])cc1Cl" | System = BDF1 mice, s.c. Lewis lung carcinoma, T/C % | T/C = ____
71 % of control

Reported T/C for BDF1 mice, s.c. Lewis lung carcinoma, T/C %, given "C[C@]12C=CC(=O)C=C1CC[C@@H]1[C@@H]2CC[C@]2(C)OC(=O)CC[C@@H]12" ?
53 % of control

Under BDF1 mice, s.c. Lewis lung carcinoma, T/C %: T/C value of "CC/C(=C(/CC)c1ccc(O)cc1)c1ccc(O)cc1" ?
17 % of control

// lookup T/C | system=BDF1 mice, s.c. Lewis lung carcinoma, T/C % | key= "COc1cc(OC)cc(-c2cc(=O)c3c(OC)c(OC)c(OC)c(OC)c3o2)c1"
87 % of control

Give BDF1 mice, s.c. Lewis lung carcinoma, T/C % T/C for "C[C@]12C=CC(=O)C=C1CC[C@@H]1[C@@H]2C(=O)C[C@@]2(C)[C@H]1CC[C@]2(O)C(=O)CO"
25 % of control

----------
I'd be grateful if you could share measured T/C for these entries.
# Test system: BDF1 mice, s.c. Lewis lung carcinoma, T/C %
# test.method.notes: NCI In Vivo Anticancer Drug Screen. Data for tumor model Lewis Lung Carcinoma (subcutaneous) in B6D2F1 (BDF1) mice
# recorded.conditions: endpoint: mean tumor weight; dose: 75.0 mg/kg/injection; schedule: Q01DX011 (ip); vehicle: other; higher = larger tumour
# Experimental: The antitumor activity of compounds was measured in mice bearing transplantable tumors. Survival or tumor size were measured and the results are expressed as the measurement made in the treated group (T) divided by the measurement made in the vehicle treated control group (C). The tumor model used in this assay is Lewis Lung Carcinoma (subcutaneous) in B6D2F1 (BDF1) mice
Records with an inconclusive call do not appear.

What measured T/C goes with "CCOC(=O)C(C)(C)Br" ?
90 % of control

For CO[C@@H]1[C@@H](OC2OC(C)C(OC3CC(C)(O)C(OC(=O)CC(C)C)C(C)O3)C(N(C)C)C2O)[C@@H](CC=O)C[C@@H](C)C(=O)/C=C/C2O[C@H]2C[C@@H](C)OC(=O)C[C@H]1OC(C)=O (stereo not given in full) , what is its reported T/C?
76 % of control

Would you kindly share the measured T/C for "Nc1nc(SCc2ccccc2)c2ncn(C3CCCC3)c2n1" ?
115 % of control

What T/C value was documented for this molecule, "O=C1N(Cl)C(=O)C(c2ccc(Cl)cc2)(c2ccc(Cl)cc2)N1Cl" ?
25 % of control

Query: T/C; subject: CCCCSc1nc(N)nc2c1ncn2CC(C)CC (stereo not given)
103 % of control

----------
Consider the following compounds; for each one, report its T/C.
# System: BDF1 mice, s.c. Lewis lung carcinoma, T/C %
# test.method.notes: NCI In Vivo Anticancer Drug Screen. Data for tumor model Lewis Lung Carcinoma (subcutaneous) in B6D2F1 (BDF1) mice
# recorded.conditions: endpoint: mean tumor weight; dose: 8.0 mg/kg/injection; schedule: Q01DX011 (ip); vehicle: saline; higher = larger tumour
Results filed as inconclusive are left out. *1 amine or outer side, *2 acyl side, *3 side chain or, on linkers, in order; H or OH if unused. Where a SMILES comes first, the peptide text is derived from it. Bridges are numbered along the chain shown (N, C = ends). [ ]: non-standard residue; d: D form. The star is where a group is joined. X2 = CC(C)C(C)C(C(=O)[*:2])N(C)[*:1]; Picolinoyl(3-OH) = O=C(c1ncccc1O)*; NMePhg = CN[CH](C(=O)O)c1ccccc1; Hyp = O=C(O)[CH]1C[CH](O)CN1; Sar = CNCC(=O)O

Would you kindly share the measured T/C for "CCC[CH2][Sn]1([CH2]CCC)[O]C(=O)C[S]1" ?
50 % of control

What value of T/C has been reported for the following compound? "O=C(Nc1ccc(C2=NCCN2)cc1)c1ccc(C(=O)Nc2ccc(C3=NCCN3)cc2)c([N+](=O)[O-])c1"
85 % of control

Return reported T/C; argument: CC(C)CC1NC(=O)C(NC(=O)c2ncccc2O)C(C)OC(=O)C(c2ccccc2)N(C)C(=O)C(C)NC(=O)C(C(C)C(C)C)N(C)C(=O)CN(C)C(=O)C2CC(O)CN2C1=O (stereo not given) ({Picolinoyl(3-OH)}-TL[Hyp][Sar][X2]A[NMePhg]; ester 1-C; configuration not given here)
86 % of control

Need T/C, item "C=C(C)C(=O)O[C@H]1CC2=C[C@@H](C[C@@]3(C)O[C@@H]3[C@H]3OC(=O)C(=C)[C@@H]31)OC2=O"
107 % of control

Quick check: T/C of CCC1/C=C/C=C/CC(C)C(O)C(C)(O)C(=O)C(C)C(O)C(C)C(=O)C(C)C(O)C(C)/C=C/C(=O)OC2C(C)C(CC1)OC1(OC(CC(C)O)C(C)CC1=O)C2C (stereo not given) (tested in a mixture with another compound) ?
82 % of control
